- assay_explanation: Plasma concentration in C57BL/6 xenografted with GM-CSF expressing mouse B16 cells mouse at 75 mg/kg, sc BID for 14 days after 1 hr by LC/MS/MS analysis
- Assay type: ADME, organism-based
- Set-up: dose 75 mg/kg, route subcutaneous
- condition_info: C57BL/6, mouse
assay_metric: concentration at 1 h (µM)
Answer format: numeric, µM implied, no suffix.

// query concentration at 1 h value for entry Nc1nonc1/C(=N/O)Nc1ccc(F)c(Cl)c1
29

###

- assay_explanation: Intrinsic clearance in human
- Assay type: ADME, organism-based
- condition_info: not recorded
assay_metric: CLint scaled (mL/min/kg)
Numbers only here, please. The scale is mL/min/kg.

structure_notation | CLint scaled [mL/min/kg]
Nc1nonc1/C(=N/O)Nc1ccc(F)c(Cl)c1 | 9.5

Note: attention shifts to another entry.
Which measured CLint scaled value corresponds to Nc1nonc1C(=Nc1cccc(Cl)c1)NO ?
18.3
